Assignment: determine reported microsomal CLint at 1 μM for the given molecules.
ASSAY_EXPLANATION: Microsomal stability assay, human liver microsomes
Assay type: in vitro ADME
MEASUREMENT_SETUP: pH 7.4, 1 μM compound, 0.5 mg/mL protein, 37° C., read-out: HLM +/− NADPH: Clint (μL/min/mg protein)

Give the measured microsomal CLint at 1 μM of `CN1C(=O)N(Cc2ccc(C(C)(C)c3cc(Cl)c(OCCCl)c(Cl)c3)cc2C#N)C(=O)C1(C)C` .
≥ 48 µL/min/mg

Next entry: `CC(C)(c1ccc(OCc2ncc(S(C)(=O)=O)o2)cc1)c1cc(Cl)c(OCCCl)c(Cl)c1`
< 12 µL/min/mg

Next entry: `CC(C)(c1ccc(-c2c[nH]c(CNS(C)(=O)=O)n2)cc1)c1cc(Cl)c(OCCCCl)c(Cl)c1`
< 12 µL/min/mg

Next entry: `CC(C)(c1ccc(OCc2coc(S(C)(=O)=O)c2)cc1)c1cc(Cl)c(OCCCl)c(C#N)c1`
< 12 µL/min/mg
